Tested on: 422866-222-R5-J1-PDC complex spheroid viability
assay.info: Anticancer human tumor 422866-222-R5-J1-PDC patient-derived pancreatic adenocarcinoma cell line growth inhibition [POLQ]
cond: second compound 3.16 µM; first compound 3.16 µM; stronger effect = lower value
The compounds listed here are annotated with their viability, T/C.
Write it as a number; the unit % goes unstated.

{"compound": "CC1COCCN1c1cc(-c2ccnn2C)c2ccnc(-c3ccn[nH]3)c2n1 (stereo not given) + COC1C(OC(N)=O)C(O)C(Oc2ccc3c(O)c(NC(=O)c4ccc(O)c(CC=C(C)C)c4)c(=O)oc3c2C)OC1(C)C", "endpoint.unit": "%", "recorded.value": 88.1}

(Q) Report viability, T/C for CC1COCCN1c1cc(C2(S(C)(=N)=O)CC2)nc(-c2ccnc3[nH]ccc23)n1 (stereo not given) + Cc1cccc(N(C)C(=O)C2C(O)CCN2c2nc(C)cc(C(F)(F)F)c2C#N)c1 please.
(A) 60.4

(Q) Report viability, T/C for CC1COCCN1c1cc(-c2ccnn2C)c2ccnc(-c3ccn[nH]3)c2n1 (stereo not given) + Nc1ccc(C#CCN(C(=O)Cc2ncc(C(F)(F)F)cc2C(F)(F)F)c2ccc(F)cc2)nn1 please.
(A) 61.5

(Q) Report viability, T/C for COc1cc2cc(C(=O)CCC(=O)O)sc2cc1OC + COC1C(OC(N)=O)C(O)C(Oc2ccc3c(O)c(NC(=O)c4ccc(O)c(CC=C(C)C)c4)c(=O)oc3c2C)OC1(C)C please.
(A) 92.5

(Q) Report viability, T/C for COc1ccc([C@@H](O)c2cc(-c3ncnc4cc(N5CCOCC5)ccc34)c(F)cc2Cl)nn1 + COC1C(OC(N)=O)C(O)C(Oc2ccc3c(O)c(NC(=O)c4ccc(O)c(CC=C(C)C)c4)c(=O)oc3c2C)OC1(C)C please.
(A) 48.3

* * *

System: 422866-222-R5-J1-PDC complex spheroid viability
assay.info: Anticancer human tumor 422866-222-R5-J1-PDC cell line growth inhibition [POLQ];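 note: spheroids exposed to compounds for one week before readout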;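 for viability, T/C: percent of DMSO vehicle wells luminescence so 100% = untreated viability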
cond: second compound 0.316 µM; first compound 3.16 µM; stronger effect = lower value
measurement.kind: viability, T/C (%)
Write it as a number; the unit % goes unstated.

Answered cases to consult:
{"compound": "CC(C)n1c(=O)n(C)c2cnc3cc(F)c(-c4ccc(OCCCN5CCCCC5)nc4)cc3c21 + Cc1cccc(N(C)C(=O)C2C(O)CCN2c2nc(C)cc(C(F)(F)F)c2C#N)c1", "measurement.kind": "viability, T/C", "recorded.value": 79.5}
{"compound": "Nc1ccn(C2OC(CO)C(O)C2(F)F)c(=O)n1 (stereo not given) + COC1C(OC(N)=O)C(O)C(Oc2ccc3c(O)c(NC(=O)c4ccc(O)c(CC=C(C)C)c4)c(=O)oc3c2C)OC1(C)C", "measurement.kind": "viability, T/C", "recorded.value": 31.7}

(Q) Report viability, T/C for CCCS(=O)(=O)Nc1ccc(F)c(C(=O)c2c[nH]c3ncc(-c4ccc(Cl)cc4)cc23)c1F + Cc1cccc(N(C)C(=O)C2C(O)CCN2c2nc(C)cc(C(F)(F)F)c2C#N)c1 please.
(A) 143

(Q) Report viability, T/C for COc1cc(C2c3cc4c(cc3C(OC3OC5COC(C)OC5C(O)C3O)C3COC(=O)C23)OCO4)cc(OC)c1O (stereo not given) + Nc1ccc(C#CCN(C(=O)Cc2ncc(C(F)(F)F)cc2C(F)(F)F)c2ccc(F)cc2)nn1 please.
(A) 29.2

(Q) Report viability, T/C for C=CC(=O)N1CCN(c2nc(=O)n(-c3c(C)ccnc3C(C)C)c3nc(-c4c(O)cccc4F)c(F)cc23)C(C)C1 (stereo not given) + Cc1cccc(N(C)C(=O)C2C(O)CCN2c2nc(C)cc(C(F)(F)F)c2C#N)c1 please.
(A) 22.8

* * *

Test system: 422866-222-R5-J1-PDC complex spheroid viability
assay.info: Anticancer human tumor 422866-222-R5-J1-PDC cell line growth inhibition [POLQ];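 note: spheroids exposed to compounds for one week before readout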;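 for viability, T/C: percent of DMSO vehicle wells luminescence so 100% = untreated viability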
cond: second compound 1 µM; first compound 0.01 µM; stronger effect = lower value
measurement.kind: viability, T/C

Answered cases to consult:
{"compound": "CC[C@@]1(O)C(=O)OCc2c1cc1n(c2=O)Cc2cc3c(CN(C)C)c(O)ccc3nc2-1 + Nc1ccc(C#CCN(C(=O)Cc2ncc(C(F)(F)F)cc2C(F)(F)F)c2ccc(F)cc2)nn1", "experimental.system": "422866-222-R5-J1-PDC complex spheroid viability", "viability, T/C": "53.6%"}
{"compound": "COc1cccc(OCCCN)c1-c1cc(Nc2cnc(C#N)cn2)n[nH]1 + COC1C(OC(N)=O)C(O)C(Oc2ccc3c(O)c(NC(=O)c4ccc(O)c(CC=C(C)C)c4)c(=O)oc3c2C)OC1(C)C", "experimental.system": "422866-222-R5-J1-PDC complex spheroid viability", "viability, T/C": "39.3%"}

// next entry
(Q) Report viability, T/C for CC[C@@]1(O)C(=O)OCc2c1cc1n(c2=O)Cc2cc3c(CN(C)C)c(O)ccc3nc2-1 + COC1C(OC(N)=O)C(O)C(Oc2ccc3c(O)c(NC(=O)c4ccc(O)c(CC=C(C)C)c4)c(=O)oc3c2C)OC1(C)C please.
(A) 61.8%

* * *

System: 422866-222-R5-J1-PDC complex spheroid viability
assay.info: Anticancer human tumor 422866-222-R5-J1-PDC cell line growth inhibition [POLQ];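 note: spheroids exposed to compounds for one week before readout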;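 for viability, T/C: percent of DMSO vehicle wells luminescence so 100% = untreated viability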
cond: second compound 0.1 µM; first compound 10 µM; stronger effect = lower value
measurement.kind: viability, T/C (%)
Write it as a number; the unit % goes unstated.

Answered cases to consult:
{"compound": "COc1cccc2c1C(=O)c1c(O)c3c(c(O)c1C2=O)CC(O)(C(=O)CO)CC3OC1CC(N)C(O)C(C)O1 (stereo not given) + Nc1ccc(C#CCN(C(=O)Cc2ncc(C(F)(F)F)cc2C(F)(F)F)c2ccc(F)cc2)nn1", "recorded.value": 27.2}
{"compound": "CC1COCCN1c1cc(C2(O)CC3CCC(C2)O3)c2cnn(-c3ccn[nH]3)c2n1 (stereo not given) + Nc1ccc(C#CCN(C(=O)Cc2ncc(C(F)(F)F)cc2C(F)(F)F)c2ccc(F)cc2)nn1", "recorded.value": 63.8}
{"compound": "CC1COCCN1c1cc(-c2ccnn2C)c2ccnc(-c3ccn[nH]3)c2n1 (stereo not given) + COC1C(OC(N)=O)C(O)C(Oc2ccc3c(O)c(NC(=O)c4ccc(O)c(CC=C(C)C)c4)c(=O)oc3c2C)OC1(C)C", "recorded.value": 79.7}

(Q) Report viability, T/C for O=C(c1cc(Cc2n[nH]c(=O)c3ccccc23)ccc1F)N1CCN(C(=O)C2CC2)CC1 + Cc1cccc(N(C)C(=O)C2C(O)CCN2c2nc(C)cc(C(F)(F)F)c2C#N)c1 please.
(A) 81.7

(Q) Report viability, T/C for C#Cc1c(F)ccc2cc(O)cc(-c3ncc4c(N5CC6CCC(C5)N6)nc(OCC56CCCN5CC(F)C6)nc4c3F)c12 (stereo not given) + COC1C(OC(N)=O)C(O)C(Oc2ccc3c(O)c(NC(=O)c4ccc(O)c(CC=C(C)C)c4)c(=O)oc3c2C)OC1(C)C please.
(A) 32.8

(Q) Report viability, T/C for CC1COCCN1c1cc(-c2ccnn2C)c2ccnc(-c3ccn[nH]3)c2n1 (stereo not given) + Cc1cccc(N(C)C(=O)C2C(O)CCN2c2nc(C)cc(C(F)(F)F)c2C#N)c1 please.
(A) 73

(Q) Report viability, T/C for CC1COCCN1c1cc(C2(S(C)(=N)=O)CC2)nc(-c2ccnc3[nH]ccc23)n1 (stereo not given) + COC1C(OC(N)=O)C(O)C(Oc2ccc3c(O)c(NC(=O)c4ccc(O)c(CC=C(C)C)c4)c(=O)oc3c2C)OC1(C)C please.
(A) 34.8

* * *

Test system: 422866-222-R5-J1-PDC complex spheroid viability
assay.info: Anticancer human tumor 422866-222-R5-J1-PDC cell line growth inhibition [POLQ];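 note: spheroids exposed to compounds for one week before readout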
cond: curve of first compound; second compound 0.316 µM
measurement.kind: pIC50
Just the number, please; pIC50 means minus log10 of the concentration in mol/L.

{"molecule": "CC[C@@]1(O)C(=O)OCc2c1cc1n(c2=O)Cc2cc3c(CN(C)C)c(O)ccc3nc2-1 + COC1C(OC(N)=O)C(O)C(Oc2ccc3c(O)c(NC(=O)c4ccc(O)c(CC=C(C)C)c4)c(=O)oc3c2C)OC1(C)C", "measurement.kind": "pIC50", "recorded.value": 7.63}

// next entry
(Q) Report pIC50 for C=CCn1c(=O)c2cnc(Nc3ccc(N4CCN(C)CC4)cc3)nc2n1-c1cccc(C(C)(C)O)n1 + COC1C(OC(N)=O)C(O)C(Oc2ccc3c(O)c(NC(=O)c4ccc(O)c(CC=C(C)C)c4)c(=O)oc3c2C)OC1(C)C please.
(A) 6.31

* * *

System: 422866-222-R5-J1-PDC complex spheroid viability
assay.info: Anticancer human tumor 422866-222-R5-J1-PDC cell line growth inhibition [POLQ];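 note: spheroids exposed to compounds for one week before readout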;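 for viability, T/C: percent of DMSO vehicle wells luminescence so 100% = untreated viability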
cond: second compound 0.316 µM; first compound 3.16 µM; stronger effect = lower value
measurement.kind: viability, T/C (%)
Write it as a number; the unit % goes unstated.

{"compound": "CC1COCCN1c1cc(C2(O)CC3CCC(C2)O3)c2cnn(-c3ccn[nH]3)c2n1 (stereo not given) + Nc1ccc(C#CCN(C(=O)Cc2ncc(C(F)(F)F)cc2C(F)(F)F)c2ccc(F)cc2)nn1", "endpoint.unit": "%", "viability, T/C": 73.8}
{"compound": "CNCc1ccc(-c2[nH]c3cc(F)cc4c3c2CCNC4=O)cc1 + COC1C(OC(N)=O)C(O)C(Oc2ccc3c(O)c(NC(=O)c4ccc(O)c(CC=C(C)C)c4)c(=O)oc3c2C)OC1(C)C", "endpoint.unit": "%", "viability, T/C": 92}
{"compound": "O=C(Nc1ccc(O)c(NS(=O)(=O)c2ccc(F)cc2)c1)c1ccc(-c2ccccc2)cc1 + COC1C(OC(N)=O)C(O)C(Oc2ccc3c(O)c(NC(=O)c4ccc(O)c(CC=C(C)C)c4)c(=O)oc3c2C)OC1(C)C", "endpoint.unit": "%", "viability, T/C": 93}
{"compound": "CCc1cc2c(N3CCc4c(cc(Cn5ccnc5)cc4-c4cn(C)nc4C(F)(F)F)C3=O)cc(C)nc2c(OC)n1 + COC1C(OC(N)=O)C(O)C(Oc2ccc3c(O)c(NC(=O)c4ccc(O)c(CC=C(C)C)c4)c(=O)oc3c2C)OC1(C)C", "endpoint.unit": "%", "viability, T/C": 102}
{"compound": "CCc1cc2c(N3CCc4c(cc(Cn5ccnc5)cc4-c4cn(C)nc4C(F)(F)F)C3=O)ccnc2c(OC)n1 + Cc1cccc(N(C)C(=O)C2C(O)CCN2c2nc(C)cc(C(F)(F)F)c2C#N)c1", "endpoint.unit": "%", "viability, T/C": 96.2}
{"compound": "O=c1[nH]cc(F)c(=O)[nH]1 + COC1C(OC(N)=O)C(O)C(Oc2ccc3c(O)c(NC(=O)c4ccc(O)c(CC=C(C)C)c4)c(=O)oc3c2C)OC1(C)C", "endpoint.unit": "%", "viability, T/C": 84.8}
{"compound": "CCc1cc2c(N3CCc4c(cc(Cn5ccnc5)cc4-c4cn(C)nc4C(F)(F)F)C3=O)ccnc2c(OC)n1 + COC1C(OC(N)=O)C(O)C(Oc2ccc3c(O)c(NC(=O)c4ccc(O)c(CC=C(C)C)c4)c(=O)oc3c2C)OC1(C)C", "endpoint.unit": "%", "viability, T/C": 112}
{"compound": "C#Cc1c(F)ccc2cc(O)cc(-c3ncc4c(N5CC6CCC(C5)N6)nc(OCC56CCCN5CC(F)C6)nc4c3F)c12 (stereo not given) + Nc1ccc(C#CCN(C(=O)Cc2ncc(C(F)(F)F)cc2C(F)(F)F)c2ccc(F)cc2)nn1", "endpoint.unit": "%", "viability, T/C": 37.1}
{"compound": "O=C(c1cc(Cc2n[nH]c(=O)c3ccccc23)ccc1F)N1CCN(C(=O)C2CC2)CC1 + Nc1ccc(C#CCN(C(=O)Cc2ncc(C(F)(F)F)cc2C(F)(F)F)c2ccc(F)cc2)nn1", "endpoint.unit": "%", "viability, T/C": 76.2}

(Q) Report viability, T/C for COc1cccc2c1C(=O)c1c(O)c3c(c(O)c1C2=O)CC(O)(C(=O)CO)CC3OC1CC(N)C(O)C(C)O1 (stereo not given) + Cc1cccc(N(C)C(=O)C2C(O)CCN2c2nc(C)cc(C(F)(F)F)c2C#N)c1 please.
(A) 26.2
